# Procedure Summary: caspase-8 TRAIL sensitization, hit retest, confirmation, cell-based, NB7+caspase-8, with/without TRAIL, luminescence panel (AID 651596)
# Condition Context: NB7 neuroblastoma + caspase-8, without TRAIL, luminescence viability, without TRAIL, mean of runs, at 10 µM
In this section, each of the compounds is paired with its reported activity.
Give the value in % but do not write % after it.

Before answering, review these 5 worked examples.
Compound | Units Label | activity
N/C(Cc1ccc(Cl)c(Cl)c1)=N\OC(=O)c1cccs1 | % | 39.5
CCN(CC)S(=O)(=O)c1cc(C(=O)OCC(=O)Nc2ccc(-c3nc4ccc(C)cc4s3)cc2)ccc1F | % | 74.2
O=C(NNC(=O)c1cc(OCC(F)(F)F)ccc1OCC(F)(F)F)c1cccc(C(F)(F)F)c1 | % | 44.2
O=C(Nc1ccc(-c2cn3ccccc3n2)cc1)c1cccs1 | % | 66.1
Fc1ccc(-c2nc(-c3cnccn3)no2)c(Cl)c1 | % | 58.1

Q. Consider the compound CC1CCc2c(sc(/N=C/c3ccco3)c2C(N)=O)C1 (stereo unspecified) and give its measured activity.
A. 56.5

Q. I would be grateful if you could share the reported activity for Cc1ccc(C(=O)Nc2ccc(Cl)cc2C)c(Cl)c1 .
A. 39.9

Q. Look up activity: CN(C)c1cccc(C(=O)N/N=C/c2ccccc2F)c1
A. 73.2

Q. Request the reported activity associated with C#Cc1ccc(NC(=O)C2(C)CCN2C(=O)Cc2ccc(-c3ccccc3)cc2)cc1 (stereo unspecified)
A. 68.4

Q. Tell me the measured activity of CCCOc1ccc(-c2cn3ccccc3n2)cc1[N+](=O)[O-] , please.
A. 52.1

Q. Reported activity for Nc1ccc(C(=O)Nc2nc3ccccc3s2)cc1 : what is it?
A. 41
